target: Ylr278c (UniProt Q05854); assay: PBM E-score (8-mer binding enrichment) (E-score (-0.5 to 0.5)); higher = stronger / more preferred TF binding; details: protein concentration: 200 nM; construct: GST-DNA-binding domain
Sequence (Q05854 whole entry, the tested form may be a part): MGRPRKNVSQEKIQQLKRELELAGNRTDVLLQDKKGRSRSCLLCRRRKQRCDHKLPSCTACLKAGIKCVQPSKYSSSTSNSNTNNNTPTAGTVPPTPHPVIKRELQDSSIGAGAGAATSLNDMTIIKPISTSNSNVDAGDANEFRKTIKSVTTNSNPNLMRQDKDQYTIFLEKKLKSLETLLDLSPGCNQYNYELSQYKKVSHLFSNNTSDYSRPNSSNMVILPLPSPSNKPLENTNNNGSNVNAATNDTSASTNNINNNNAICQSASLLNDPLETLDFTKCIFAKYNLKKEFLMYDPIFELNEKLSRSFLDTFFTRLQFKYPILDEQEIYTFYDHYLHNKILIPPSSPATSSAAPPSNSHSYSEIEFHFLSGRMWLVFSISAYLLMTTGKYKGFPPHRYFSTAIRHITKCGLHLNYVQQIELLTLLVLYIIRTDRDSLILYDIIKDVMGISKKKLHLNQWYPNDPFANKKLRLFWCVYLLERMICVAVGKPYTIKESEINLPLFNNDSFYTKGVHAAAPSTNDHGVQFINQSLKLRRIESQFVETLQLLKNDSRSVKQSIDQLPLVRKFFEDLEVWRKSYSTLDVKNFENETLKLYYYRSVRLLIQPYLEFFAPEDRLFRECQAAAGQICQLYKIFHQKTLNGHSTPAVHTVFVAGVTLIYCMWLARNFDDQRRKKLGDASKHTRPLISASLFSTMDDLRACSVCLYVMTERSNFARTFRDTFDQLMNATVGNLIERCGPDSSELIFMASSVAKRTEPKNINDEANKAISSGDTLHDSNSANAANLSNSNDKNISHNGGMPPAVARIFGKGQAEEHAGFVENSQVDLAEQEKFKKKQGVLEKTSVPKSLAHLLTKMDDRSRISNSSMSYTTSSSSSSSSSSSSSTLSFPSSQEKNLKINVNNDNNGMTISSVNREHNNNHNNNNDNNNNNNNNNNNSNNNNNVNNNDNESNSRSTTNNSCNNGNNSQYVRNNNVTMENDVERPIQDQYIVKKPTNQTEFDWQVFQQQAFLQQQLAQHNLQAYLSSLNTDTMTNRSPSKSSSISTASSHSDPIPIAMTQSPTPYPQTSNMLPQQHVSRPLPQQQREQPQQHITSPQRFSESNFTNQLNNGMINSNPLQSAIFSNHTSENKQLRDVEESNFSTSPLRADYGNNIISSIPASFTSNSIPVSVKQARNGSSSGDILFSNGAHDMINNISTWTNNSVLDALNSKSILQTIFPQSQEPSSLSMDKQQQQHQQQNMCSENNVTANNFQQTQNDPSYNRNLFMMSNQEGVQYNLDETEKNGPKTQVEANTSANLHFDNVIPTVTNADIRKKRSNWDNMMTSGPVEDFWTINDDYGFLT
Over roughly 33,000 sequences, “E-score (-0.5 to 0.5)” has its median near -0.054; the highest 2% begin near 0.39. The sample holds the highest values, similar sequences and a random draw of the others, so the mix is not that of the screen.
ASSAY_METRIC: PBM E-score

Please review the entries below; each comes with its answer.
INPUT_SEQUENCE	PBM E-score
ATGTCCCA	-0.0785
TACTTTAA	-0.122
AGACACCT	-0.185
TATCGGAA	0.413
AGCTAGAC	-0.174

stdin: Entry `GCTTTTGA` has what PBM E-score?
stdout: -0.0305
